Test system: HepG2
Experiment: Cytotoxicity assay using MTS in human hepatocytes
Type: cell-based
pIC50: −log10 of the molar value.
Kind request: treat 5 as inclusive, so pIC50 at 5 or higher is yes (1), anything lower is no (0).

Can CN(C)CCNc1cc(/C=C/c2cccc(F)c2)nc2ccc(Cl)cc12 [Compound 31] be said to have pIC50 at or above 5?
yes (1)

Threshold query (pIC50 >= 5) on CN(C)CCNc1cc(/C=C/c2ccccc2F)nc2ccc(Cl)cc12 [Compound 30]
yes (1)

Is pIC50 at least 5? Consider Clc1ccc2nc(/C=C/c3ccncc3)cc(NCCCCN3CCOCC3)c2c1 [Compound 93]
yes (1)

###

Tested on: late stage (IV-V) gametocytes of 3D7 expressing luciferase parasite
Assay: In vitro gametocytocidal activity, late stage
Format: cell-based, Plasmodium falciparum
Conditions: Plasmodium falciparum, 3D7; read-out: Pf Gametocyte EC50 (late stage)
endpoint_label: EC50 (nM)
Kindly provide the numeric value in nM only, without the unit symbol.

Entry under test: CN(C)CCNc1cc(/C=C/c2ccc(C(F)(F)F)cc2)nc2ccc(Cl)cc12 [Compound 24] . Its EC50 was 394

###

Target: early stage (I-III) gametocytes of 3D7 expressing luciferase parasite
Assay: In vitro gametocytocidal activity, early stage
Assay type: cell-based, Plasmodium falciparum
Settings: early stage gametocytes; means and SEMs of three experiments; read-out: Early stage IC50
endpoint_label: IC50 (nM)
I only need the number, in nM, no unit after it.

CN1CCN(CCNc2cc(/C=C/c3ccc(F)cc3)nc3ccc(Cl)cc23)CC1 yielded IC50 of 910

###

Biological target: late stage (IV-V) gametocytes of 3D7 expressing luciferase parasite
Test: In vitro gametocytocidal activity, late stage
Format: cell-based, Plasmodium falciparum
Details: late stage gametocytes; means and SEMs of three experiments
endpoint_label: pIC50
By convention, pIC50 is the negative base-10 log of a molar concentration.

Item: CN1CCN(CCNc2cc(/C=C/c3ccc(F)cc3)nc3ccc(Cl)cc23)CC1 | System: late stage (IV-V) gametocytes of 3D7 expressing luciferase parasite | pIC50: 5.60

###

Assay: Cytotoxicity assay using MTS in human hepatocytes
Assay type: cell-based
Conditions: human, HepG2 cells (human hepatocytes); Table 6B, unit inferred; footnote IC50 (HepG2); read-out: Cytotoxic activity HepG2 (converted)
# Lookup of reported IC50 keyed by entry
Kindly answer with a numeric value in µM, unit omitted.

| molecule | IC50 [µM] |
| --- | --- |
| CCN(CC)CCCC(C)Nc1cc(/C=C/c2ccc([N+](=O)[O-])cc2)nc2ccc(OC)cc12 (centres unmarked) [Compound according to Formula 1, reference compound] | 12.9 |

Then this molecule:
Looking up CN(C)CCNc1cc(/C=C/c2ccc(C(F)(F)F)cc2)nc2ccc(Cl)cc12 , I found its IC50 recorded as 11.2

###

Tested on: CQ-resistant (Dd2) strain of P. falciparum
Experiment: In vitro antiplasmodial activity, SYBR Green I fluorescence assay, Dd2 strain
Type: cell-based, Plasmodium falciparum
Settings: Plasmodium falciparum; Dd2 strain; read-out: EC50
endpoint_label: pEC50
For clarity, pEC50 is expressed as the negative log10 of concentration in mol/L.

Documented pEC50 of CCN(CC)CCCC(C)Nc1cc(/C=C/c2ccc([N+](=O)[O-])cc2)nc2ccc(OC)cc12 (centres unmarked) [Compound according to Formula 1, reference compound] : 7.17

###

Test system: CQ-resistant (Dd2) strain of P. falciparum
Assay: In vitro antiplasmodial activity, SYBR Green I fluorescence assay, Dd2 strain
Format: cell-based, Plasmodium falciparum
Details: Plasmodium falciparum; CQ-resistant (Dd2) strain, 72 h incubation; read-out: EC50 (nmol)
endpoint_label: pEC50
Recall that pEC50 is obtained by taking minus log10 of the concentration measured in molar.

| molecule | experimental_result |
| --- | --- |
| CCN(CC)CCCC(C)Nc1cc(/C=C/c2ccc([N+](=O)[O-])cc2)nc2ccc(OC)cc12 (centres unmarked) [Compound according to Formula 1, reference compound] | 7.17 |

Turning now to a further record.
The molecule listed as CN(C)CCNc1cc(/C=C/c2ccc(C(F)(F)F)cc2)nc2ccc(Cl)cc12 has a reported pEC50 of 7.96

###

Clint reference
Assay: In vitro microsomal turnover assay (metabolic stability)
Details: mouse, microsomes
Hi! Could you send only the number? It should be in µL/min/mg, unit omitted.

| compound | unit_info | Clint |
| --- | --- | --- |
| CN(C)CCNc1cc(/C=C/c2cccc(F)c2)nc2ccc(Cl)cc12 | µL/min/mg | 32.1 |
| CN(C)CCNc1cc(/C=C/c2ccc(C(F)(F)F)cc2)nc2ccc(Cl)cc12 | µL/min/mg | 13.3 |
| Clc1ccc2nc(/C=C/c3ccncc3)cc(NCCCCN3CCOCC3)c2c1 | µL/min/mg | 96.2 |
| CCN(CC)CCCC(C)Nc1cc(/C=C/c2ccc([N+](=O)[O-])cc2)nc2ccc(OC)cc12 (centres unmarked) [Compound according to Formula 1, reference compound] | µL/min/mg | 33.4 |
| Fc1ccc(/C=C/c2cc(NCc3ccccn3)c3cc(Cl)ccc3n2)cc1 | µL/min/mg | 21.2 |

The reported Clint of the compound Fc1ccc(/C=C/c2cc(NCCCCN3CCOCC3)c3cc(Cl)ccc3n2)cc1 was 62.4

Sample CN1CCN(CCNc2cc(/C=C/c3ccc(F)cc3)nc3ccc(Cl)cc23)CC1 ; Clint observed: 23.0

GET /value?item= FC(F)(F)c1ccc(/C=C/c2cc(NCCCCN3CCOCC3)c3cc(Cl)ccc3n2)cc1 &field=Clint returns 21.4

###

Test: In vitro microsomal turnover assay (metabolic stability)
Method: Selectivity of compounds were determined by cytoxicity assay using MTS [(3-(4,5-dimethylthiazol-2-yl)-5-(3-carboxymethoxyphenyl)-2-(4-sulfophenyl)-2H-tetrazolium) in human hepatocytes. The metabolic stability of compounds was determined in mouse liver microsomes using an NADPH-regenerating system. The aqueous solubility at pH 7.4 was determined by UV-visible absorption based method. […]
The threshold is 40 min. Values of Projected t1/2 beneath it are tagged met; values meeting or exceeding it are tagged not met.

Examples with answers:
| structure_as_smiles | assigned_class |
| --- | --- |
| Fc1ccc(/C=C/c2cc(NCc3ccccn3)c3cc(Cl)ccc3n2)cc1 | not met |
| CN(C)CCNc1cc(/C=C/c2cccc(F)c2)nc2ccc(Cl)cc12 | not met |
| Clc1ccc2nc(/C=C/c3ccncc3)cc(NCCCCN3CCOCC3)c2c1 | met |
| CN1CCN(CCNc2cc(/C=C/c3ccc(F)cc3)nc3ccc(Cl)cc23)CC1 | not met |

I'd appreciate it if you could check whether Fc1ccc(/C=C/c2cc(NCCCCN3CCOCC3)c3cc(Cl)ccc3n2)cc1 has Projected t1/2 smaller than 40 min.
met

# TODO verify Projected t1/2 < 40 min strictly for this compound: FC(F)(F)c1ccc(/C=C/c2cc(NCCCCN3CCOCC3)c3cc(Cl)ccc3n2)cc1
not met

###

Assay: In vitro microsomal turnover assay (metabolic stability)
Conditions: mouse, microsomes, 1 h
Rule for this label: 1.0 means % remaining after 60 min is less than 50%; 0.0 means % remaining after 60 min is at least 50%.

Use these answered entries as a reference point.
| compound | assigned_class |
| --- | --- |
| CN(C)CCNc1cc(/C=C/c2cccc(F)c2)nc2ccc(Cl)cc12 | 1.0 |
| CCN(CC)CCCC(C)Nc1cc(/C=C/c2ccc([N+](=O)[O-])cc2)nc2ccc(OC)cc12 (centres unmarked) [Compound according to Formula 1, reference compound] | 1.0 |
| Clc1ccc2nc(/C=C/c3ccncc3)cc(NCCCCN3CCOCC3)c2c1 | 1.0 |
| CN(C)CCNc1cc(/C=C/c2ccc(C(F)(F)F)cc2)nc2ccc(Cl)cc12 | 0.0 |
| Fc1ccc(/C=C/c2cc(NCc3ccccn3)c3cc(Cl)ccc3n2)cc1 | 0.0 |

Would you kindly verify if % remaining after 60 min of Fc1ccc(/C=C/c2cc(NCCCCN3CCOCC3)c3cc(Cl)ccc3n2)cc1 is strictly less than 50%?
1.0

% remaining after 60 min strictly < 50% for this compound? FC(F)(F)c1ccc(/C=C/c2cc(NCCCCN3CCOCC3)c3cc(Cl)ccc3n2)cc1
0.0

###

IC50 for assorted compounds
Tested on: HepG2
Assay: Cytotoxicity assay using MTS in human hepatocytes
Type: cell-based
Conditions: Table 6B, unit inferred; footnote IC50 (HepG2); read-out: Cytotoxic activity HepG2 (converted)
Please give a number only; it is taken to be in µM.

| structure_as_smiles | assayed_target | IC50 (µM) |
| --- | --- | --- |
| Fc1ccc(/C=C/c2cc(NCCCCN3CCOCC3)c3cc(Cl)ccc3n2)cc1F | HepG2 | 6.14 |

Let us examine a further case.
The measured IC50 associated with CN(C)CCNc1cc(/C=C/c2ccncc2)nc2ccc(Cl)cc12 reads 6.11
